Sourced from patent US6362211B1

system: Alpha2 Adrenoceptors (alpha2AR); assay: Antagonist activity on alpha2 adrenoceptors in rat vas deferens in vitro (electrically evoked twitch response); assay type: cell-based; conditions: isolated rat vas deferens, field stimulation; antagonist given at least five minutes before alpha2AR agonist
Observed property: Vas deferens Alpha2 antagonistic activity, pA2

[
  {
    "Compound": "c1ccc2c(c1)CC1(c3c[nH]cn3)Cc3ccccc3C21 (stereo not shown) [Example 8]",
    "Readout value": "pA2 = 7.4"
  },
  {
    "Compound": "Fc1ccc2c(c1)C1CCCCC1(c1c[nH]cn1)C2 (stereo not shown) [Example 4]",
    "Readout value": "pA2 = 7.4"
  },
  {
    "Compound": "CC1CCC2(c3c[nH]cn3)Cc3ccccc3C12 (stereo not shown) [Example 2(b)]",
    "Readout value": "pA2 = 7.4"
  }
]
